Target: panel of 442 kinases (Homo sapiens, UniProt P00533, L858R)
Construct: purchased KINOMEscan
Sequence (P00533 25-1210 L858R): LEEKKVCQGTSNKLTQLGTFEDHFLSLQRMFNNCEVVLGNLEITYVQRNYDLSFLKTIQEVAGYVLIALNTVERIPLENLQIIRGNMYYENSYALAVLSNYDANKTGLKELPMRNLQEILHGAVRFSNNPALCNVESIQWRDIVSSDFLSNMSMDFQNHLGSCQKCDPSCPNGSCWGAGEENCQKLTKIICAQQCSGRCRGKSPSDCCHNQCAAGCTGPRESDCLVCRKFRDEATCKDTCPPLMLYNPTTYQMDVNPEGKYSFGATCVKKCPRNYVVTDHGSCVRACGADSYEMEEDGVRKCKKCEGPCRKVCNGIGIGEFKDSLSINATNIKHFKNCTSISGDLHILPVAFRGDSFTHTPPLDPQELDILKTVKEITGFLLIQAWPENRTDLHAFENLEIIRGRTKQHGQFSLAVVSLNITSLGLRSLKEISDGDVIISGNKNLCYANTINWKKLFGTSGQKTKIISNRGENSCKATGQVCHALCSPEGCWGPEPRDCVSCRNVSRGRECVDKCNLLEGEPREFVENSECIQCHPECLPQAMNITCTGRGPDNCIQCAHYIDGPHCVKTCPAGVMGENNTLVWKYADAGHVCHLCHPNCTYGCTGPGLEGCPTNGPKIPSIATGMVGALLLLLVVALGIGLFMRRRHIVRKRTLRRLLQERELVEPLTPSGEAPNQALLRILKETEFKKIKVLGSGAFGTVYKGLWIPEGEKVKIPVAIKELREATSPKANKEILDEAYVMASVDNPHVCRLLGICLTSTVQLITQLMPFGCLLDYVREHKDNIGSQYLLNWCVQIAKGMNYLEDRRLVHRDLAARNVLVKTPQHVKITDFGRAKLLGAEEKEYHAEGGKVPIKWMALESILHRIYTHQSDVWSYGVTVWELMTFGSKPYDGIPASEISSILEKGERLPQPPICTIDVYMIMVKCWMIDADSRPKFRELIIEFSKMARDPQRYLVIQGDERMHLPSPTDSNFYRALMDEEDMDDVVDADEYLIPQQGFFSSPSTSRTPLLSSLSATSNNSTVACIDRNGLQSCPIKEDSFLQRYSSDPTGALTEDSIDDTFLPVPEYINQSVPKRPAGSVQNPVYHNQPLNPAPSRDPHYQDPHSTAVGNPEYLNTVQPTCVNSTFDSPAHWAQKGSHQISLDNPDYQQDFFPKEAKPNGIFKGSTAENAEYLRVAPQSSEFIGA
Format: binding
Conditions: Compound Concentration 10 µM
Measured KINOMEscan: EGFR(L858R) values are reported for all entries that follow.
Respond numerically, and do not add a unit to the figure.

COc1cc(C(=O)N2CCC(N3CCN(C)CC3)CC2)ccc1Nc1ncc2c(n1)N1CCc3cccc(c31)C(=O)N2C | 62

Query: I'd like to know its KINOMEscan: EGFR(L858R). The compound in question is `CCOc1cc(C(=O)N2CCC(N3CCN(C)CC3)CC2)ccc1Nc1ncc2c(n1)N(C1CCCC1)c1ccccc1C(=O)N2C`
Result: 100

Query: Please look up its KINOMEscan: EGFR(L858R): `COc1cc(C(=O)N2CCC(N3CCN(C)CC3)CC2)ccc1Nc1ncc2c(n1)N(C)c1ccccc1C(=O)N2C`
Result: 79

Query: Need KINOMEscan: EGFR(L858R), item `COc1cc(C(=O)N2CCC(N3CCN(C)CC3)CC2)ccc1Nc1ncc2c(n1)N(C1CCCC1)c1ccccc1C(=O)N2C`
Result: 83
